- targetOrTestSystem: phosphorylated p-38-alpha kinase (Homo sapiens, UniProt Q16539)
- Sequence (Q16539 1-360 isoform Q16539-2): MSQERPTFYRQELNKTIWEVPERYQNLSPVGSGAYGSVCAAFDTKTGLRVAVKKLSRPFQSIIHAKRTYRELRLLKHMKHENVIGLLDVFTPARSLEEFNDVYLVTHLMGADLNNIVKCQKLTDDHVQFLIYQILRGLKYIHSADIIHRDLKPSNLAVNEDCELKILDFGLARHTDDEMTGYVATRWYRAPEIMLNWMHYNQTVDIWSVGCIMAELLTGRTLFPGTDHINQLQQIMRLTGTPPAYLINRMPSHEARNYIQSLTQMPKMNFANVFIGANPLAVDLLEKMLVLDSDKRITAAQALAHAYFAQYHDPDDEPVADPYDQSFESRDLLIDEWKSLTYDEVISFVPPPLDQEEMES
- testName: P-38 alpha kinase assay P1
- Assay type: biochemical
- appliedConditions: Method P1; 2 h pre-incubation before ATP
experimentalEndpoint: IC50

{"columns": ["molecule", "experimentalValue"],
 "data": [
  ["NC(=O)Cc1cccc(-n2nc(-c3ccccc3)cc2NC(=O)Nc2cccc(Cl)c2Cl)c1", "0.011 µM"],
  ["O=C(Cc1cccc(-n2nc(C3CCCC3)cc2NC(=O)Nc2cccc(Cl)c2Cl)c1)NCC(O)CO (stereo not drawn)", "0.006 µM"],
  ["NC(=O)Cc1ccc(-n2nc(-c3ccccc3F)cc2NC(=O)Nc2cccc(Cl)c2Cl)cc1", "0.038 µM"],
  ["NC(=O)Cc1cccc(-n2nc(-c3cccc(F)c3)cc2NC(=O)Nc2cccc(Cl)c2Cl)c1", "0.022 µM"],
  ["O=C(Cc1cccc(-n2nc(-c3ccccc3F)cc2NC(=O)Nc2cccc(Cl)c2Cl)c1)NCC(O)CO (stereo not drawn)", "0.005 µM"],
  ["O=C(Cc1ccc(-n2nc(-c3cccs3)cc2NC(=O)Nc2cccc(Cl)c2Cl)cc1)NCC(O)CO (stereo not drawn)", "0.01 µM"],
  ["NC(=O)Cc1ccc(-n2nc(-c3ccsc3)cc2NC(=O)Nc2cccc(Cl)c2Cl)cc1", "0.009 µM"],
  ["Cn1c(=O)c(-c2cccc(NC(=O)Nc3cc(C(C)(C)C)nn3-c3cccc(CC(N)=O)c3)c2)cc2cncnc21", "0.012 µM"],
  ["NC(=O)Cc1cccc(-n2nc(-c3ccccc3)cc2NC(=O)Nc2cccc(Oc3cccnc3)c2)c1", "0.076 µM"],
  ["CC(C)(C)c1cc(NC(=O)Nc2ccc(F)c(F)c2F)n(-c2ccc(CC(=O)O)cc2)n1", "0.008 µM"],
  ["O=C(Nc1cccc(Cl)c1Cl)Nc1cc(-c2ccccc2F)nn1-c1ccc(CC(=O)N2CC[C@H](O)C2)cc1", "0.037 µM"],
  ["Cn1c(=O)c(-c2cccc(NC(=O)Nc3cc(C4CCCC4)nn3-c3cccc(CC(N)=O)c3)c2)cc2cncnc21", "0.011 µM"],
  ["O=C(Cc1cccc(-n2nc(-c3ccsc3)cc2NC(=O)Nc2cccc(Cl)c2Cl)c1)NCCO", "0.007 µM"],
  ["O=C(Cc1cccc(-n2nc(C3CCCC3)cc2NC(=O)Nc2cccc(Cl)c2Cl)c1)NCCO", "0.007 µM"],
  ["O=C(Cc1cccc(-n2nc(-c3cccs3)cc2NC(=O)Nc2cccc(Cl)c2Cl)c1)NCCO", "0.008 µM"]
]}

====

- targetOrTestSystem: phospho p-38 alpha kinase (Homo sapiens, UniProt Q16539)
- Construct: purchased Panvera
- Sequence (Q16539 whole entry): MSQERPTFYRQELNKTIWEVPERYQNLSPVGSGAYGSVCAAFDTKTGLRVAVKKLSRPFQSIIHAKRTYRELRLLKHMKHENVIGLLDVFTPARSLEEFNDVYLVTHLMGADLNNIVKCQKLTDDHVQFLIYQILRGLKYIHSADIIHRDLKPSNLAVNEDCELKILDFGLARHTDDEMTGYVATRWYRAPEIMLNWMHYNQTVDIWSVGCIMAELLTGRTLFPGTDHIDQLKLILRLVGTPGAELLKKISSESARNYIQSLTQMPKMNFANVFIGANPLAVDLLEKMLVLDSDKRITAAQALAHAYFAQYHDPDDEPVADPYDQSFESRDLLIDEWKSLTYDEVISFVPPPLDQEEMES
- testName: P-38 alpha kinase assay (spectrophotometric, pyruvate kinase/lactate dehydrogenase coupled)
- Format: biochemical
- appliedConditions: Table 3; rates at […] to 2 h; read-out: IC50
- Description: In this assay, the oxidation of NADH was continuously measured spectrophometrically. […] The reaction was initiated by adding ATP. The absorption at 340 nm was monitored continuously for up to 4 hours at 30° C. on Polarstar Optima plate reader (BMG). The kinase activity (reaction rate) was calculated from the slope at the time frame from 1.5 h to 2 h. For inhibition determinations, test compounds were incubated with the reaction mixture for ˜5 min before adding ATP to start the reaction. […]
# IC50 annotations

{"columns": ["smilesRepr", "IC50, nM"],
 "data": [
  ["CC(C)(C)c1cc(NC(=O)Nc2cccc(Cl)c2Cl)n(-c2cccc(C(N)=O)c2)n1", 1300],
  ["COc1cccc(-n2nc(C(C)(C)C)cc2NC(=O)Nc2ccc(F)cc2)c1", 13],
  ["CC(C)(C)c1cc(NC(=O)Nc2cccc(F)c2F)n(-c2ccc(CC(=O)O)cc2)n1", 8]
]}
